Tested On: SHP2-C SH2;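 note: peptide library displayed on the E. coli surface as eCPX fusions, selected cells deep-sequenced, score is each peptide's frequency after selection divided by its frequency in the input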
Test Details: SH2 binding enrichment of the phosphorylated peptide, bacterial display (enrichment ratio); higher = better substrate or ligand; peptides without Tyr show the background
Measurement Type: SH2 binding enrichment

{"Sequence Record": "AHEALYLEADL [CENPF_Y1920_E1915A]", "SH2 binding enrichment": 0.386}
{"Sequence Record": "SVTCTYSSALN [TP53_Y126_P128S]", "SH2 binding enrichment": 0.732}
{"Sequence Record": "ETKKQYNSFTF [TMED3_Y85_D86N_YF]", "SH2 binding enrichment": 0.636}
{"Sequence Record": "EKKDIYKAGEQ [CFH_Y1008_V1007I]", "SH2 binding enrichment": 0.648}
{"Sequence Record": "EKQARYEIVVE [CDH5_Y223]", "SH2 binding enrichment": 0.666}
{"Sequence Record": "KSEKVYTRHGV [FLOT1_Y56]", "SH2 binding enrichment": 0.824}
{"Sequence Record": "YSMGCYEIYLG [HMGCL_Y198_S201Y]", "SH2 binding enrichment": 0.641}

Write down the reported SH2 binding enrichment of TEQDPYNNIVR [MMUT_Y364] , test system: SHP2-C SH2. 0.649
